What viscosity was measured for each of the following?
Settings: 313.15 K; 100 kPa; Liquid; Falling or rolling sphere viscometry
Give bare numbers, in mPa·s.

>  <compound>
CCCCCCCCCCCCCC(=O)OC [methyl tetradecanoate]

>  <viscosity, mPa·s>
2.797

$$$$
>  <compound>
CC1CCCCC1 [methylcyclohexane]

>  <viscosity, mPa·s>
0.563

$$$$

Would you mind listing viscosity for each of the following compounds?
1. CCCCCCCCCC(=O)OC [methyl decanoate]
2. CCCCCCCCCCCC(=O)OC [methyl dodecanoate]

Completion:
1: 1.453; 2: 2.049

* * *

Conditions: 303.15 K; 100 kPa; Liquid; Falling or rolling sphere viscometry
measurement-name: viscosity (mPa·s)
Give bare numbers, in mPa·s.

Known results for compounds:
>  <compound>
CC1CCCCC1

>  <value-units>
mPa·s

>  <viscosity>
0.638

$$$$
>  <compound>
CCCCCCCCCCCCCC(=O)OC [methyl tetradecanoate]

>  <value-units>
mPa·s

>  <viscosity>
3.519

$$$$
>  <compound>
CCCCCCCCCCCC(=O)OC [methyl dodecanoate]

>  <value-units>
mPa·s

>  <viscosity>
2.504

$$$$

Prompt: Hello, please tell me recorded viscosity for this one: CCCCCCCCCC(=O)OC [methyl decanoate]
Completion: 1.738
